test system: L1210 leukemia ip in BDF1 mice, survival T/C; experiment: NCI In Vivo Anticancer Drug Screen. Data for tumor model L1210 Leukemia (intraperitoneal) in B6D2F1 (BDF1) mice; details: endpoint: mean survival time; dose: 50.0 mg/kg/injection; schedule: Q01DX009 (ip); vehicle: saline
Inconclusive results and toxic doses are left out. No stated cut-off is given here; in the data, active means T/C of 150% or more; inactive means T/C below 125%.
Please reply with one of these outcomes: active, inactive

CSC(N)=Nc1cccc2c1CCCC2    inactive
C=C1C(=O)OC2C1CCC(C)C1(O)C=CC(=O)C21C (centres undefined)    inactive
C[N+](C)(C)Cc1ccco1    inactive
O=c1ccn2ccccc2n1    inactive
CSc1nc2nc(Cl)c(Cl)nc2[nH]1    inactive
NNC(=O)c1ccncc1    inactive
NC(N)=Nc1ccc(C(=O)Oc2ccc([N+](=O)[O-])cc2Cl)cc1    inactive
COC(=O)C(C)CN1CCCCC1 (centres undefined)    inactive
CN(C)CCN1C(=O)CC(c2ccccc2)Sc2ccccc21 (centres undefined)    inactive
C=CCN(CC=C)CC=C    inactive

Query string: What did the test return for `N#CCCCN1CCCCCC1` ?
Result string: inactive

Query string: What did the test return for `CC(=O)C[P+](c1ccccc1)(c1ccccc1)c1ccccc1` ?
Result string: inactive

---

system: L1210 leukemia ip in BDF1 mice, survival T/C; experiment: NCI In Vivo Anticancer Drug Screen. Data for tumor model L1210 Leukemia (intraperitoneal) in B6D2F1 (BDF1) mice; conditions: endpoint: mean survival time; dose: 50.0 mg/kg/injection; schedule: Q01DX009 (ip); vehicle: other
Toxic doses and inconclusive results are not listed. No stated cut-off is given here; in the data, active means T/C of 150% or more; inactive means T/C below 125%.
Please reply with one of these outcomes: Y for active, N for inactive

Illustrative cases are given below, each with its answer.
NC(CSC(c1ccccc1)(c1ccccc1)c1ccc(CBr)cc1)C(=O)O (centres undefined)    N
Nc1nc(SCc2ccccc2)c2ncn(C3OC(CO)CC3O)c2n1 (centres undefined)    Y
CCN=C(NCC)Nc1ccc(NC(=O)c2ccc(C(=O)Nc3ccc(NC(=NCC)NCC)cc3)cc2)cc1    Y

Query string: What did the test return for CCCCNC(C)(C)C(SS)c1ccc(Cl)cc1 (centres undefined) ?
Result string: N

---

Form field: T/C (one value per entry).
test system: L1210 leukemia ip in BDF1 mice, survival T/C; test: NCI In Vivo Anticancer Drug Screen. Data for tumor model L1210 Leukemia (intraperitoneal) in B6D2F1 (BDF1) mice; conditions: endpoint: mean survival time; dose: 50.0 mg/kg/injection; schedule: Q04DX003 (ip); vehicle: saline with Tween-80; higher = longer survival
Inconclusive results and toxic doses are left out.

These solved cases illustrate the format of a correct answer.
Cc1ccc(Cl)cc1NC(=O)N1C(C)CCCC1C (centres undefined)    100 % of control
O=S(=O)(/C=C\c1ccccc1)/C=C/c1ccccc1    94 % of control
CN(C)c1ccc(-c2c3cc(O)c(=O)cc-3oc3cc(O)c(O)cc23)cc1    95 % of control

Please examine the following record next.
Query string: Item under review: CC(C)CCCC(C)C1CCC2C3CC=C4CC(C5C(=O)NC(=O)NC5=O)CCC4(C)C3CCC12C (centres undefined) . Reported T/C?
Result string: 87 % of control

---

system: L1210 leukemia ip in BDF1 mice, survival T/C; test: NCI In Vivo Anticancer Drug Screen. Data for tumor model L1210 Leukemia (intraperitoneal) in B6D2F1 (BDF1) mice; settings: endpoint: mean survival time; dose: 25.0 mg/kg/injection; schedule: Q01DX009 (ip); vehicle: saline with Tween-80; higher = longer survival
Toxic doses and inconclusive results are not listed.
Result Type: T/C

CCCCCCCCCCCCC1CCCC(C)C1 (stereo not given)    89 % of control
CCNC(=O)Oc1c(Cl)cc(S(=O)(=O)F)cc1Cl    103 % of control
CCOC(=O)C(CC(C)C)NC(=O)CCCCSc1ncnc2nc[nH]c12 (stereo not given)    110 % of control

Query string: Item under review: `C1=C(c2ccccc2)S/C(=C/c2ccccc2)S1` . Reported T/C?
Result string: 96 % of control

Query string: Item under review: C=CCOCC(O)CNCC(O)COCC=C (stereo not given) . Reported T/C?
Result string: 98 % of control

Query string: Item under review: CC(CN1CCN(C)CC1)CN1c2ccccc2Sc2ccc(C(F)(F)F)cc21 (stereo not given) . Reported T/C?
Result string: 111 % of control

Query string: Item under review: Cc1ccnc(NC(C#N)c2ccccc2)c1 (stereo not given) . Reported T/C?
Result string: 97 % of control

Query string: Item under review: `Cc1ccc(OCc2c(COc3ccc(Cl)cc3)sc3ccc(Cl)cc23)cc1` . Reported T/C?
Result string: 95 % of control

Query string: Item under review: CCCCCCCCCCOC(CN)C(Cl)(Cl)Cl (stereo not given) . Reported T/C?
Result string: 97 % of control

Query string: Item under review: `COc1c(C)c(C)c(OC(C)=O)c(C)c1COC(C)=O` . Reported T/C?
Result string: 90 % of control

---

test system: L1210 leukemia ip in BDF1 mice, survival T/C; experiment: NCI In Vivo Anticancer Drug Screen. Data for tumor model L1210 Leukemia (intraperitoneal) in B6D2F1 (BDF1) mice; details: endpoint: mean survival time; dose: 200.0 mg/kg/injection; schedule: Q04DX002 (ip); vehicle: Klucel (hydroxypropylcellulose) (HPC); higher = longer survival
Toxic doses and inconclusive results are not listed.
Result Type: T/C

These solved cases illustrate the format of a correct answer.
CCOC(=O)Cn1c(=O)n(CC(=O)OCC)c2ccccc21    100 % of control
CCCCCCCCP(C)(=O)CCCCCCCC    102 % of control
Nc1ccc(S(=O)(=O)Nc2ccccn2)cc1    98 % of control
Cc1cccc(C)c1OC(=O)Nc1ccccc1Cl    106 % of control
C=CC(=O)NC(=O)/C=C/c1cccnc1    106 % of control

Query string: Item under review: `O=[N+]([O-])c1ccc([S][Pb]([c]2ccccc2)([c]2ccccc2)[c]2ccccc2)cc1` . Reported T/C?
Result string: 93 % of control

Query string: Item under review: COC1OC(CCl)C(OS(=O)(=O)c2ccc(C)cc2)C(OS(=O)(=O)c2ccc(C)cc2)C1OS(=O)(=O)c1ccc(C)cc1 (configuration not stated) . Reported T/C?
Result string: 93 % of control

---

System: L1210 leukemia ip in BDF1 mice, survival T/C
Test: NCI In Vivo Anticancer Drug Screen. Data for tumor model L1210 Leukemia (intraperitoneal) in B6D2F1 (BDF1) mice
Settings: endpoint: mean survival time; dose: 150.0 mg/kg/injection; schedule: Q01DX009 (ip); vehicle: Klucel (hydroxypropylcellulose) (HPC); higher = longer survival
Description: The antitumor activity of compounds was measured in mice bearing transplantable tumors. Survival or tumor size were measured and the results are expressed as the measurement made in the treated group (T) divided by the measurement made in the vehicle treated control group (C). The tumor model used in this assay is L1210 Leukemia (intraperitoneal) in B6D2F1 (BDF1) mice
Toxic doses and inconclusive results are not listed.
Result Type: T/C

O=C1NC(=O)C(c2ccc(Cl)cc2)(c2ccc(Cl)cc2)N1    103 % of control

Query string: Item under review: O=C1NC(c2cccc3ccccc23)Nc2ccc(Cl)cc21 (centres undefined) . Reported T/C?
Result string: 116 % of control

Query string: Item under review: `N#Cc1ccc(OCCCCCOc2ccc([N+](=O)[O-])cc2)cc1` . Reported T/C?
Result string: 97 % of control

Query string: Item under review: CC(=O)OCC1=C(COC(C)=O)C2OC1C1OC(=O)OC21 (centres undefined) . Reported T/C?
Result string: 92 % of control

---

tested on: L1210 leukemia ip in BDF1 mice, survival T/C; experiment: NCI In Vivo Anticancer Drug Screen. Data for tumor model L1210 Leukemia (intraperitoneal) in B6D2F1 (BDF1) mice; conditions: endpoint: mean survival time; dose: 400.0 mg/kg/injection; schedule: Q04DX002 (ip); vehicle: Klucel (hydroxypropylcellulose) (HPC); higher = longer survival
Toxic doses and inconclusive results are not listed.
Result Type: T/C

COC1OC(CCl)C(OS(=O)(=O)c2ccc(C)cc2)C(OS(=O)(=O)c2ccc(C)cc2)C1OS(=O)(=O)c1ccc(C)cc1 (stereo not given)    97 % of control
O=C(O)c1cc(Br)ccc1O    102 % of control
C=CC1=C(C)C(=O)N/C1=C\c1[nH]c(Cc2[nH]c(/C=C3/NC(=O)C(C(C)SC(C)=O)=C3C)cc2CCC(=O)O)c(CCC(=O)O)c1C (stereo not given)    97 % of control
CCC(=O)n1cc2ccc([N+](=O)[O-])cc2n1    101 % of control

Query string: Item under review: `CN(C(=O)c1ccc([N+](=O)[O-])cc1)c1ccccc1` . Reported T/C?
Result string: 123 % of control

---

Form field: T/C (one value per entry).
system: L1210 leukemia ip in BDF1 mice, survival T/C; experiment: NCI In Vivo Anticancer Drug Screen. Data for tumor model L1210 Leukemia (intraperitoneal) in B6D2F1 (BDF1) mice; conditions: endpoint: mean survival time; dose: 100.0 mg/kg/injection; schedule: Q04DX003 (ip); vehicle: saline with Tween-80; higher = longer survival
Toxic doses and inconclusive results are not listed.

These solved cases illustrate the format of a correct answer.
O=C(COc1ccc(Cl)cc1Cl)Oc1c(Cl)c(Cl)c(Cl)c(Cl)c1Cl    91 % of control
CC(C)N(C(=O)Nc1cccc(OC(=O)N(C)C)c1)C(C)C    94 % of control
Cc1ccc(CNc2ccc([N+](=O)[O-])cc2)cc1    93 % of control
C(=N\n1cnnc1)/c1ccc(/C=N/n2cnnc2)cc1    105 % of control
O=C(/C=C/c1ccccc1)Nc1ccc2ccccc2c1    92 % of control

Query string: Item under review: `Cc1cc(Cl)ccc1NC(=O)c1ccc(Cl)c(Cl)c1` . Reported T/C?
Result string: 100 % of control
